Hi there, I'd appreciate the recorded Emax for every entry that follows.
target: human GLP-1R (Homo sapiens (Human), UniProt P43220, L260F); assay: CHO GLP-1R Clone C6 - Assay 2 (HTRF cAMP agonist assay, low receptor density); details: read-out: Assay 2 Emax (%), CHO GLP-1R Clone C6 (low receptor density); arithmetic mean, relative to saturating GLP-1 (1 μM)
Sequence (P43220 24-463 L260F): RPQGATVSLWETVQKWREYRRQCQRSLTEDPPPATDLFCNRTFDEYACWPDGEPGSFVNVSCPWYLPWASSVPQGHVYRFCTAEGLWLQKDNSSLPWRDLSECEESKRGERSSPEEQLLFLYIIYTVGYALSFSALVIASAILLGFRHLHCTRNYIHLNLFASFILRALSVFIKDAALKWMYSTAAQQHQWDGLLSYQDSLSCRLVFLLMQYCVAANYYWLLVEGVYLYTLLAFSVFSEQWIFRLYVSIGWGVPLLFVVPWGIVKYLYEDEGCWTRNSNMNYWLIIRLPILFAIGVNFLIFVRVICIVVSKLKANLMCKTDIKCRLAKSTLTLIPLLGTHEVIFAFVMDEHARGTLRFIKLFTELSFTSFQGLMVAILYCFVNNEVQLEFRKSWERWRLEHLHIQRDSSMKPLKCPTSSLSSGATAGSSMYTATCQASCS
Write down the numeric answer in % and omit the unit.

Note Emax for the compound shown: COCCn1c(CN2CCC(c3cccc4c3OC(C)(c3ccc(Cl)cc3F)O4)CC2)nc2ncc(C(=O)O)cc21 (stereo not drawn) [Example 3]
120

Report Emax for CC1(c2ccc(Cl)cc2F)Oc2c(F)ccc(C3CCN(Cc4nc5ccc(C(=O)O)cc5n4C[C@@H]4CCO4)CC3)c2O1 (single isomer, unassigned) [Example 96]
93

Give the value of Emax reported for the following: COCCn1c(CN2CCC(c3cccc4c3OC(C)(c3ccc(F)cc3)O4)CC2)nc2ccc(C(=O)O)cc21 (stereo not drawn) [Example 38]
73

Could you please provide reported Emax for CC1(c2ccc(Cl)cc2F)Oc2cccc(C3CCN(Cc4nc5ccc(C(=O)O)cc5n4Cc4ccccn4)CC3)c2O1 (stereo not drawn) [Example 45] ? Thanks!
79

Identify Emax associated with the compound CN(CCn1c(CN2CCC(c3cccc4c3OC(C)(c3ccc(Cl)cc3F)O4)CC2)nc2ccc(C(=O)O)cc21)S(C)(=O)=O (stereo not drawn) [Example 71]
80

Return value of Emax for input O=C(O)c1ccc2nc(CN3CCC(c4cccc5c4O[C@@H](c4ccc(Cl)cc4F)O5)CC3)n(C[C@@H]3CCO3)c2c1 [Example 5] , no commentary.
97

====

target: human GLP-1R (Homo sapiens (Human), UniProt P43220, L260F); assay: CHO GLP-1R Clone C6 - Assay 2 (HTRF cAMP agonist assay, low receptor density); details: read-out: Assay 2 Emax (%), CHO GLP-1R Clone C6 (low receptor density); arithmetic mean, relative to saturating GLP-1 (1 μM)
Criterion: Emax strictly less than 80%. Met: Condition met. Not met: Condition not met.

Strictly below 80% in Emax? Cn1ncnc1Cn1c(CN2CCC(c3cccc4c3OC(C)(c3ccc(Cl)cc3F)O4)CC2)nc2ccc(C(=O)O)cc21 (stereo not drawn) [Example 57]
Condition not met

Does COCCn1c(CN2CCC(c3cccc4c3OC(C)(c3ccc(Cl)cc3)O4)CC2)nc2ccc(C(=O)O)cc21 (stereo not drawn) [Example 33] have Emax strictly under 80%?
Condition not met

Does COCCn1c(CN2CCC(c3cccc4c3OC(C)(c3ccc(OC)cc3)O4)CC2)nc2ccc(C(=O)O)cc21 (stereo not drawn) [Example 32] have Emax strictly under 80%?
Condition not met

Answer whether the compound COCCn1c(CN2CCN(c3cccc4c3OC(C)(c3ccc(Cl)cc3F)O4)CC2)nc2ccc(C(=O)O)cc21 (stereo not drawn) [Example 19] has Emax strictly less than 80%
Condition not met

Hello, is Emax of the following compound strictly smaller than 80%? COCCn1c(CN2CCN(c3cccc4c3OC(c3ccc(Cl)cc3F)O4)CC2)nc2ccc(C(=O)O)cc21 (single isomer, unassigned) [Example 2]
Condition not met

Quick check: Emax of CC1(c2ccc(Cl)cc2F)Oc2cccc(C3CCN(Cc4nc5ccc(C(=O)O)cc5n4CCO)CC3)c2O1 (stereo not drawn) [Example 75] under 80%?
Condition met

In plain terms, does COCCn1c(CN2CCC(c3cccc4c3OC(C)(c3ccc(F)c(F)c3)O4)CC2)nc2ccc(C(=O)O)cc21 (stereo not drawn) [Example 41] come in under 80% for Emax?
Condition met

Hello, is Emax of the following compound strictly smaller than 80%? CCn1nncc1Cn1c(CN2CCC(c3cccc4c3OC(C)(c3ccc(Cl)cc3F)O4)CC2)nc2ccc(C(=O)O)cc21 (stereo not drawn) [Example 76]
Condition not met

Does this compound meet the criterion Emax < 80%? CN(C)C(=O)CCn1c(CN2CCC(c3cccc4c3OC(C)(c3ccc(Cl)cc3F)O4)CC2)nc2ccc(C(=O)O)cc21 (stereo not drawn) [Example 59]
Condition met

Consider CC1(c2ccc(Cl)cc2F)Oc2cccc(C3CCN(Cc4nc5ccc(C(=O)O)cc5n4Cc4ncco4)CC3)c2O1 (stereo not drawn) [Example 80] . Does its Emax lie strictly below 80%?
Condition not met

Quick check: Emax of CN(C)CCn1c(CN2CCC(c3cccc4c3OC(C)(c3ccc(Cl)cc3F)O4)CC2)nc2ccc(C(=O)O)cc21 (stereo not drawn) [Example 12] under 80%?
Condition not met

Does Cn1cc(CCn2c(CN3CCC(c4cccc5c4OC(C)(c4ccc(Cl)cc4F)O5)CC3)nc3ccc(C(=O)O)cc32)nn1 (stereo not drawn) [Example 60] have Emax strictly under 80%?
Condition met

Problem: For the compound CCc1ccc(C2(C)Oc3cccc(C4CCN(Cc5nc6ccc(C(=O)O)cc6n5CCOC)CC4)c3O2)cc1 (stereo not drawn) [Example 29] , is Emax under 80%?
Condition not met

Please indicate whether the reported Emax of CC1(c2ccc(Cl)cc2F)Oc2cccc(C3CCN(Cc4nc5ccc(C(=O)O)nc5n4Cc4ncco4)CC3)c2O1 (stereo not drawn) [Example 13] is strictly below 80%.
Condition not met

Would you kindly verify if Emax of COCCn1c(CN2CCC(c3cccc4c3OC(C)(c3ccc(OC)c(F)c3)O4)CC2)nc2ccc(C(=O)O)cc21 (stereo not drawn) [Example 30] is strictly less than 80%?
Condition met

Hi there! Is Emax for Cn1cnnc1Cn1c(CN2CCC(c3cccc4c3OC(C)(c3ccc(Cl)cc3F)O4)CC2)nc2ccc(C(=O)O)cc21 (stereo not drawn) [Example 78] below 80%, do you know?
Condition not met

Please state whether Emax is below 80% for COCCn1c(CN2CCC(c3cccc4c3OC(C)(c3ccc(Cl)cc3F)O4)CC2)nc2ccc(C(=O)O)cc21 (stereo not drawn) [Example 24]
Condition not met

Lab note: Emax threshold 80%. Does this compound come in strictly under it? COCCn1c(CN2CCC(c3cccc4c3OC(C)(c3ccc(C(F)(F)F)cc3)O4)CC2)nc2ccc(C(=O)O)cc21 (stereo not drawn) [Example 40]
Condition met

Is Emax strictly under 80% for the entry C[C@@]1(c2ccc(Cl)cc2F)Oc2cccc(C3CCN(Cc4nc5ccc(C(=O)O)cc5n4C[C@@H]4CCO4)CC3)c2O1 [Example 6] ?
Condition not met

Below 80% on Emax? Entry CC(=O)N(C)CCn1c(CN2CCC(c3cccc4c3OC(C)(c3ccc(Cl)cc3F)O4)CC2)nc2ccc(C(=O)O)cc21 (stereo not drawn) [Example 43]
Condition not met

In plain terms, does C[C@]1(c2ccc(Cl)cc2F)Oc2cccc(C3CCN(Cc4nc5ccc(C(=O)O)cc5n4C[C@@H]4CCO4)CC3)c2O1 [Example 7] come in under 80% for Emax?
Condition not met

Answer whether the compound COCCn1c(CN2CCC(c3cccc4c3OC(C)(c3ccccc3)O4)CC2)nc2ccc(C(=O)O)cc21 (stereo not drawn) [Example 82] has Emax strictly less than 80%
Condition not met

is_below(Emax, 80%) for Cn1cc(Cn2c(CN3CCC(c4cccc5c4OC(C)(c4ccc(Cl)cc4F)O5)CC3)nc3ccc(C(=O)O)cc32)nn1 (stereo not drawn) [Example 63] ?
Condition not met

Is Emax strictly under 80% for the entry C[C@]1(c2ccc(Cl)cc2F)Oc2cccc(C3CCN(Cc4nc5ccc(C(=O)O)c(F)c5n4C[C@@H]4CCO4)CC3)c2O1 [Example 100] ?
Condition not met

====

target: human GLP-1R (Homo sapiens, UniProt P43220, G168S); test: CHO GLP-1R Clone H6 - Assay 1 (HTRF cAMP agonist assay); conditions: CHO GLP-1R Clone H6, cAMP HTRF; geometric mean
Sequence (P43220 24-463 G168S limits assumed): as the sequence (P43220 24-463 L260F) above, with G145S, F237L counted along it
pEC50: −log10 of the molar value.
Decision: pEC50 compared against 8; not below it gives condition met, below it gives condition not met.

# check: pEC50 of COCCn1c(CN2CCC(c3cccc4c3OC(C)(c3ccc(Cl)cc3)O4)CC2)nc2ccc(C(=O)O)cc21 (stereo not shown) is greater than or equal to 8
condition met

Say whether COCCn1c(CN2CCC(c3cccc4c3OC(C)(c3cccc(OC)c3)O4)CC2)nc2ccc(C(=O)O)cc21 (stereo not shown) shows pEC50 of 8 or more.
condition not met

API: above_or_equal(metric=pEC50, cutoff=8) for item COCCn1c(CN2CCC(c3cccc4c3OC(C)(c3cccc(C)n3)O4)CC2)nc2ccc(C(=O)O)cc21 (stereo not shown)
condition not met

Decide: pEC50 of CC1(c2ccc(Cl)cc2F)Oc2cccc(C3CCN(Cc4nc5ccc(C(=O)O)cc5n4CC4CCOC4)CC3)c2O1 (stereo not shown) >= 8?
condition met

API: above_or_equal(metric=pEC50, cutoff=8) for item COCc1cc(Cn2c(CN3CCC(c4cccc5c4OC(C)(c4ccc(Cl)cc4F)O5)CC3)nc3ccc(C(=O)O)cc32)[nH]n1 (stereo not shown)
condition not met

Item CC1(c2ccc(Cl)cc2F)Oc2cccc(C3CCN(Cc4nc5ccc(C(=O)O)cc5n4CCN4CCOC4=O)CC3)c2O1 (stereo not shown) with pEC50 of 8 or above?
condition met

Item CC1(c2ccc(Cl)cc2F)Oc2cccc(C3CCN(Cc4nc5ccc(C(=O)O)cc5n4CCCn4cncn4)CC3)c2O1 (stereo not shown) with pEC50 of 8 or above?
condition not met

Determine whether measured pEC50 meets or exceeds 8 for CC1(c2ccc(Cl)cc2F)Oc2cccc(C3CCN(Cc4nc5ccc(C(=O)O)cc5n4Cc4cccnc4)CC3)c2O1 (stereo not shown)
condition met

Decide: pEC50 of CCn1cncc1Cn1c(CN2CCC(c3cccc4c3O[C@@](C)(c3ccc(Cl)cc3F)O4)CC2)nc2ccc(C(=O)O)cc21 (single isomer, unassigned) >= 8?
condition met

Test whether the compound CCn1cncc1Cn1c(CN2CCC(c3cccc4c3O[C@](C)(c3ccc(Cl)cc3F)O4)CC2)nc2ccc(C(=O)O)cc21 (single isomer, unassigned) records pEC50 of 8 or higher.
condition not met

Textbook exercise: given the entry COCCn1c(CN2CCC(c3cccc4c3OC(CO)(c3ccccc3)O4)CC2)nc2ccc(C(=O)O)cc21 (stereo not shown) , state whether its pEC50 is greater than or equal to 8.
condition not met

Is it the case that CC1(c2ccc(C#N)cc2F)Oc2cccc(C3CCN(Cc4nc5ccc(C(=O)O)cc5n4Cc4ncco4)CC3)c2O1.N (stereo not shown) has pEC50 reaching or exceeding 8?
condition met

Entry COCCn1c(CN2CCC(c3cccc4c3OC(C)(c3ccccn3)O4)CC2)nc2ccc(C(=O)O)cc21 (stereo not shown) [Example 90] : is its pEC50 no less than 8?
condition not met

Is the recorded value of pEC50 equal to or greater than 8 for this compound? CC1(c2ccc(C#N)cc2F)Oc2cccc(C3CCN(Cc4nc5ccc(C(=O)O)cc5n4C[C@@H]4CCO4)CC3)c2O1 (single isomer, unassigned) [Example 9]
condition not met

hey, is pEC50 for this one >= 8? COCCn1c(CN2CCC(c3cccc4c3OC(C)(c3ccc(OC)cc3Cl)O4)CC2)nc2ccc(C(=O)O)cc21 (stereo not shown)
condition met

Can `C[C@]1(c2ccc(Cl)cc2F)Oc2cccc(C3CCN(Cc4nc5ccc(C(=O)O)cc5n4C[C@@H]4CCO4)CC3)c2O1` be said to have pEC50 at or above 8?
condition met

Is pEC50 at least 8? Consider COCCn1c(CN2CCC(c3cccc4c3OC(C)(c3ccc(Cl)cc3F)O4)CC2)nc2ccc(C(=O)O)cc21 (stereo not shown)
condition met

Is reported pEC50 greater than or equal to 8 here: COCCn1c(CN2CCC(c3cccc4c3OC(c3ccc(Cl)cc3F)O4)CC2)nc2ccc(C(=O)O)cc21 (stereo not shown) [Example 21]
condition not met
